Test system: OVCAR-4 ovarian
Procedure Details: NCI-60 one-dose screen, 48 h
Experimental Setup: 10 µM unless noted
Compounds without any hit were thinned out: in the full panel of roughly 83,000, 20% have a hit. Calls of active or inactive are those of the source. The calls were made as follows: active = growth percent below 10; inactive = the rest.
Write down one outcome, taken from Y = active, N = inactive

Qu. Test call for this molecule, please: CCCCCCNC(=O)Oc1ccc(/C(=C(\C)c2ccccc2)c2ccc(OCCN3CCCCC3)cc2)cc1
Ans. N

Qu. Test call for this molecule, please: Cc1cnc(C(=O)Nc2nc3ccc(S(=O)(=O)Nc4ccc(C5(C(F)(F)F)CC5)cc4)cc3[nH]2)cn1
Ans. N

Qu. Test call for this molecule, please: CC(=O)O[C@H]1Cc2c([nH]c3ccccc23)[C@@H](c2ccc(Cl)cc2)N1C(=O)CCNC(C)(C)C
Ans. N

Qu. Test call for this molecule, please: CC(=O)Oc1ccc(/C=N/NC(N)=S)nc1
Ans. N

Qu. Test call for this molecule, please: O=C(CCN1CCCC1)Nc1ccc2c(NCCCc3ccccc3)c3ccccc3nc2c1
Ans. Y

Qu. Test call for this molecule, please: CCC(CC)NCC(C)(C)O
Ans. N

Qu. Test call for this molecule, please: COC(=O)C(OC(C)=O)C(OC(C)=O)c1ccc(OC)c(OC)c1 (stereo not given)
Ans. N

Qu. Test call for this molecule, please: N/C(=N\C(N)=N\c1nc2ccccc2s1)c1cccc(Cl)c1
Ans. N

Qu. Test call for this molecule, please: O=C(Nc1ncc(Cc2cc(Cl)ccc2Cl)s1)c1cccs1
Ans. N

Qu. Test call for this molecule, please: COc1cc(C2C3=C(COC3=O)N(CCO)c3cc4c(cc32)CCC4)cc(OC)c1OC (stereo not given)
Ans. N

Qu. Test call for this molecule, please: COc1ccc(CCn2cncc2-c2c[nH]c3ccccc23)cc1
Ans. N

Qu. Test call for this molecule, please: O=C(Nc1cccc(C2=NCCN2)c1)c1ccc(-c2ccc(C(=O)Nc3cccc(C4=NCCN4)c3)cc2)cc1
Ans. N

Qu. Test call for this molecule, please: Nc1nc(Nc2ccccc2SSc2ccccc2Nc2nc(N)nc(-c3cccs3)n2)nc(-c2ccsc2)n1
Ans. N

Qu. Test call for this molecule, please: C=C1C(=O)O[C@H]2[C@H]1CC/C(CNS(=O)(=O)c1cccc3ccccc13)=C\CC[C@@]1(C)O[C@@H]21
Ans. N

Qu. Test call for this molecule, please: Nc1n[nH]c2cccc(C#Cc3cccc(C(=O)Nc4cccc(C(F)(F)F)c4)c3)c12
Ans. N
